assayed-system: CIB1 and αIIb interaction (CIB1-GST : F-αIIb peptide) (Homo sapiens)
Construct: made in house; host or cells: BL-21 plus RIL cells (E. coli)
Sequence (Q99828 1-191): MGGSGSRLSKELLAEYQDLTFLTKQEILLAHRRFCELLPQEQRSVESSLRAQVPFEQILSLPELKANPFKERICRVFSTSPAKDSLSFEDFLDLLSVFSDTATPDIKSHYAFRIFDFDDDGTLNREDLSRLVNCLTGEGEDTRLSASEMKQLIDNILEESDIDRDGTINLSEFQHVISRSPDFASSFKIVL
run-description: FP assay, 1536-well qHTS format (primary and confirmatory screen)
Format: binding
run-parameters: qHTS FP screen hits, Table S2; read-out: IC50
Cut-off 40 µM on IC50: below means t, at or above means f.

stdin: Hello, I'm reviewing records and need to know if IC50 of Cn1c(NC2=NC3(CCCC3)C3=C(CCCC3=O)N2)nc2ccccc21.O=C(O)C(F)(F)F [NCGC00188583-01] is below 40 µM. Could you check?
stdout: t

stdin: Hello, I'm reviewing records and need to know if IC50 of O=C(O)C(F)(F)F.Oc1cccc2cc(N3CCCC3)cnc12 [NCGC00188744-01] is below 40 µM. Could you check?
stdout: t

stdin: Hello, I'm reviewing records and need to know if IC50 of COC(=O)c1ccc(O)c2ncc(-c3ccc(C(=O)NCCCN(C)C)cc3)cc12.O=C(O)C(F)(F)F [NCGC00189510-01] is below 40 µM. Could you check?
stdout: f

stdin: Hello, I'm reviewing records and need to know if IC50 of Oc1ccc(Cl)cc1Cc1cc(Cl)ccc1O [NCGC00091325-09] is below 40 µM. Could you check?
stdout: f

stdin: Hello, I'm reviewing records and need to know if IC50 of CC(=O)NC(Cc1ccccc1)C(=O)O (stereo not drawn) [NCGC00042134-05] is below 40 µM. Could you check?
stdout: f

stdin: Hello, I'm reviewing records and need to know if IC50 of COC(=O)[C@]12CCC(C)(C)C[C@H]1[C@H]1C(=O)C=C3[C@@]4(C)C=C(C#N)C(=O)C(C)(C)[C@@H]4CC[C@@]3(C)[C@]1(C)CC2 [NCGC00186460-01] is below 40 µM. Could you check?
stdout: t

stdin: Hello, I'm reviewing records and need to know if IC50 of Nc1nc2c(s1)C(c1ccc(F)cc1F)CC(=O)N2 (stereo not drawn) [NCGC00422010-03] is below 40 µM. Could you check?
stdout: f

stdin: Hello, I'm reviewing records and need to know if IC50 of Cc1c(C)n(Cc2ccc(-c3ccccc3C(=O)O)cc2)c2ccc(C(=O)N[C@@H](C)c3ccc([N+](=O)[O-])cc3)cc12 [NCGC00347955-01] is below 40 µM. Could you check?
stdout: t

stdin: Hello, I'm reviewing records and need to know if IC50 of COc1ccc2nc3[nH]nc(C)c3c(NCCOCCO)c2c1 [NCGC00384193-04] is below 40 µM. Could you check?
stdout: f

stdin: Hello, I'm reviewing records and need to know if IC50 of CCCCC(CC)CNC(=N)NC(=N)NCCCCCCNC(=N)NC(=N)NCC(CC)CCCC.Cl.Cl.Cl (stereo not drawn) [NCGC00178352-06] is below 40 µM. Could you check?
stdout: t

stdin: Hello, I'm reviewing records and need to know if IC50 of Cc1ccc(S(=O)(=O)Nc2cnccc2C(=O)Nc2nc(-c3ccc4c(c3)CCCC4)cs2)cc1.O=C(O)C(F)(F)F [NCGC00318953-01] is below 40 µM. Could you check?
stdout: t

stdin: Hello, I'm reviewing records and need to know if IC50 of Oc1ccc2c(-c3c(-c4ccccn4)nn4c3CCC4)ccnc2c1 [NCGC00408881-01] is below 40 µM. Could you check?
stdout: t

stdin: Hello, I'm reviewing records and need to know if IC50 of C=C(CC)C(=O)c1ccc(OCC(=O)O)c(Cl)c1Cl [NCGC00016260-13] is below 40 µM. Could you check?
stdout: t

stdin: Hello, I'm reviewing records and need to know if IC50 of Cc1cc(F)ccc1S(=O)(=O)Nc1cnccc1C(=O)Nc1nc(-c2ccccc2)cs1 [NCGC00345106-03] is below 40 µM. Could you check?
stdout: f

stdin: Hello, I'm reviewing records and need to know if IC50 of Cc1cc(NS(=O)(=O)c2ccc(NC(=O)Cc3ccc(F)c(Cl)c3)cc2)no1.O=C(O)C(F)(F)F [NCGC00244873-01] is below 40 µM. Could you check?
stdout: t

stdin: Hello, I'm reviewing records and need to know if IC50 of Fc1ccc(NC(=S)Nc2nnc(-c3ccncc3)s2)cc1C(F)(F)F.O=C(O)C(F)(F)F [NCGC00241743-01] is below 40 µM. Could you check?
stdout: t

stdin: Hello, I'm reviewing records and need to know if IC50 of COc1ccc(CC(NC(C)=O)C(=O)O)cc1 (stereo not drawn) [NCGC00384987-01] is below 40 µM. Could you check?
stdout: f

stdin: Hello, I'm reviewing records and need to know if IC50 of CC(=O)NC(c1cccs1)c1cc(Br)c2cccnc2c1O (stereo not drawn) [NCGC00188370-02] is below 40 µM. Could you check?
stdout: f

stdin: Hello, I'm reviewing records and need to know if IC50 of O=C(O)C(F)(F)F.O=S(=O)(NCc1nccs1)c1ccc(Nc2nc(-c3ccccc3)cs2)cc1 [NCGC00262383-01] is below 40 µM. Could you check?
stdout: f

stdin: Hello, I'm reviewing records and need to know if IC50 of CC[PH](CC)(CC)[Au][S][C@@H]1O[C@H](COC(C)=O)[C@@H](OC(C)=O)[C@H](OC(C)=O)[C@H]1OC(C)=O [NCGC00160391-05] is below 40 µM. Could you check?
stdout: t

stdin: Hello, I'm reviewing records and need to know if IC50 of Brc1c(Br)c(Br)c2[nH]nnc2c1Br [NCGC00092352-04, 4,5,6,7-tetrabromobenzotriazole, reference compound] is below 40 µM. Could you check?
stdout: t

stdin: Hello, I'm reviewing records and need to know if IC50 of COc1ccc(C(=O)Nc2nc(-c3ccccc3)cs2)c(NS(=O)(=O)c2ccc(C)cc2)c1.O=C(O)C(F)(F)F [NCGC00262390-01] is below 40 µM. Could you check?
stdout: t
